- Measured On: rCB1 receptor (Rattus norvegicus)
- Sequence (P20272 whole entry): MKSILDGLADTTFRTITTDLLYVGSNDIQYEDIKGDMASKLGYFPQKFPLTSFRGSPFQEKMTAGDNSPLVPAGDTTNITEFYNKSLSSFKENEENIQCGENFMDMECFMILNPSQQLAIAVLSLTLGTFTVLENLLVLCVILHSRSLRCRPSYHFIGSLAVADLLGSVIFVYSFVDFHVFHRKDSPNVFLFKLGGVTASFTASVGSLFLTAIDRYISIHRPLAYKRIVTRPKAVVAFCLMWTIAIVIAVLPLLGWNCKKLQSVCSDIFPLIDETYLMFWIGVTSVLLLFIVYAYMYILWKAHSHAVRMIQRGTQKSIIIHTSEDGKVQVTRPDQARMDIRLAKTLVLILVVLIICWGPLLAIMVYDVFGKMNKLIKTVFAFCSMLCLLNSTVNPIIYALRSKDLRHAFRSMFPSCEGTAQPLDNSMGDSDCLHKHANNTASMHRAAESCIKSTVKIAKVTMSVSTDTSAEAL
- Test Summary: rCB1 radioligand binding assay, [3H]CP-55,940 competition
- Setup Conditions: ratio of Ki values
Some compounds, each annotated with its measured increase in binding affinity for CB1 compared to lead AMG315.
Result Type: increase in binding affinity for CB1 compared to lead AMG315

>  <Compound>
C[C@H](/C=C\C/C=C\C/C=C\CCCC(=O)N[C@H](C)CO)/C=C\CCCCCC#N [Compound 16a]

>  <Reported>
2–7 fold

$$$$
>  <Compound>
C[C@H](/C=C\C/C=C\C/C=C\CCCC(=O)N[C@H](C)CO)/C=C\CCCCC(F)(F)F

>  <Reported>
10 fold

$$$$
>  <Compound>
C[C@H](/C=C\C/C=C\C/C=C\CCCC(=O)N[C@H](C)CO)/C=C\CCCCCO[N+](=O)[O-] [Compound 16b]

>  <Reported>
2–7 fold

$$$$
>  <Compound>
C[C@H](/C=C\C/C=C\C/C=C\CCCC(=O)N[C@H](C)CO)/C=C\CCCCCBr

>  <Reported>
2–7 fold

$$$$
>  <Compound>
C[C@H](/C=C\C/C=C\C/C=C\CCCC(=O)N[C@H](C)CO)/C=C\CCCCCF

>  <Reported>
2–7 fold

$$$$
